Target: T1, human ASIC1 (human, UniProt P78348 1-528)
T1 sequence: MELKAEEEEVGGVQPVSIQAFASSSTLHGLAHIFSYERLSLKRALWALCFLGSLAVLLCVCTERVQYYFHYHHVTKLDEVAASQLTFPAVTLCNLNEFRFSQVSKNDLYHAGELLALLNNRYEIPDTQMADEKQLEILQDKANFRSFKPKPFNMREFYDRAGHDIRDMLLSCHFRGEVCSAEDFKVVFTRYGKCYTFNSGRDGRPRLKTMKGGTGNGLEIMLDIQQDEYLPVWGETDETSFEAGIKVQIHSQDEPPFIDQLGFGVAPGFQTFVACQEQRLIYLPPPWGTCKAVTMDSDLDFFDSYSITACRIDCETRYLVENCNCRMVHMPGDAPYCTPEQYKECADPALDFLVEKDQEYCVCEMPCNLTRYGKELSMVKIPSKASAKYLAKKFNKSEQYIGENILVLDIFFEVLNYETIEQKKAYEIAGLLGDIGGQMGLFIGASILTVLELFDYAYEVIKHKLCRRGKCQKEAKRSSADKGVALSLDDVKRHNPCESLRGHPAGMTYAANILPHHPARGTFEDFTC
Test: cell-based or functional assay
Overview of recorded apparent IC50, human ASIC1 current, Q-Patch for various binders

// H4H6366P (antibody, human IgG4, V domains shown) VH: EVQLVESGGDLIQPGGSLRLSCIASGFTFRGYAMSWVRQAPGEGLDWVSGISSGGGNTYYADSVKGRFTISRDNSKNTLYLQMNSLRVEDTAVYYCAKDRGGVRDFYYGLDVWGQGTTVTVSS VL: DIQMTQSPSTLSASVGDRVTITCRASQSIYSWLAWYQQKPGKAPKLLIYKASSLESGVPSRFSGSGSGTDFTLTISSLQPDDFTTYYCQQYLSYSRTFGQGTKVEIK : apparent IC50, human ASIC1 current, Q-Patch value = ≤ 10 nM
